Tested on: A549 (lung adenocarcinoma)
Assay: Cytotoxicity, MTT assay, A549
Assay type: cell-based, human
Conditions: Homo sapiens, A549, A549 cell line, mean ± s.d. (n = 3)
Experimental: The in vitro cytotoxicity assay toward a panel of human cancer cell lines of several clerodane diterpenoids has been well investigated. Thus, the isolates in adequate amounts were tested against MOLT-3 (acute lymphoblastic leukemia), HuCCA-1 (cholangiocarcinoma), HepG2 (hepatocellular carcinoma), A549 (lung adenocarcinoma), HeLa (cervical carcinoma), and MDA-MB-231 (triple negative breast cancer) cancer cell lines using the MTT and XTT methods. […]
Could you please report measured IC50 for the items listed next?
Reply with the number, then its unit.

INSERT INTO assay_data (molecule, experimental_system, observed_result) VALUES
  ('C=CC(=C)CC[C@]1(C)[C@H](C)C[C@H](OC)[C@@]23C(=C[C@H](OC(=O)C(C)C)C[C@@H]12)[C@@H](OC(C)=O)O[C@H]3OC(C)=O', 'A549 (lung adenocarcinoma)', '5.8 µM');

// each listed molecule needs a value for IC50
1. C=CC(C)=CCC1(C)C(C)C(OC(=O)C=Cc2ccc(O)cc2)C(O)C23C(=CC(OC(=O)CC(C)C)CC12)C(OC(C)=O)OC3OC(C)=O (stereo not drawn)
2. COc1cccc2c1C(=O)c1c(O)c3c(c(O)c1C2=O)C[C@@](O)(C(=O)CO)C[C@@H]3O[C@H]1C[C@H](N)[C@H](O)[C@H](C)O1 [Doxorubicin, reference compound]
3. C=CC(=C)CC[C@]1(C)[C@H](C)C[C@H](OC)[C@@]23C(=C[C@H](OC(=O)[C@@H](C)CC)C[C@@H]12)[C@@H](OC(C)=O)O[C@H]3OC(C)=O
4. C=CC(=C)CC[C@]1(C)[C@H](C)[C@@H](OC(=O)/C=C/c2ccc(O)cc2)[C@H](O)[C@@]23C(=C[C@H](OC(=O)CC(C)C)C[C@@H]12)[C@H](OC(C)=O)O[C@H]3OC(C)=O
5. C=CC(=C)CC[C@]1(C)[C@H](C)[C@@H](OC(=O)CC(C)C)[C@H](O)[C@@]23C(=C[C@H](OC(=O)CC(C)C)C[C@@H]12)[C@@H](OC(C)=O)O[C@H]3OC(C)=O

Solution:
2.4 µM
0.38 µM
5 µM
2.6 µM
3.6 µM

* * *

System: HeLa (cervical carcinoma)
Assay: Cytotoxicity, MTT assay, HeLa
Type: cell-based, human
Conditions: Homo sapiens, HeLa, HeLa cell line; MTT; mean ± s.d. (n = 3); read-out: IC50, HeLa
OBSERVABLE: pIC50
Give bare numbers, as −log10 of the molar value.

INSERT INTO assay_data (compound, experimental_system, observed_result) VALUES
  ('C=CC(=C)CC[C@]1(C)[C@H]2C[C@H](OC(=O)CC(C)C)C=C3[C@H](OC(C)=O)O[C@H](OC(C)=O)[C@@]32[C@H](OC)C[C@@H]1C [Compound 9, caseargrewiin A]', 'HeLa (cervical carcinoma)', 5.28);

For the 3 compounds below, give their pIC50 values.
1. C=CC(=C)CC[C@]1(C)[C@H](C)[C@@H](OC(=O)/C=C/c2ccc(O)cc2)[C@H](O)[C@@]23C(=C[C@H](OC(=O)CC(C)C)C[C@@H]12)[C@H](OC(C)=O)O[C@H]3OC(C)=O [Compound 14, Grewiifopene G]
2. C=CC(=C)CC[C@]1(C)[C@H](C)C[C@H](O)[C@@]23C(=C[C@H](OC(=O)CC(C)C)C[C@@H]12)[C@@H](OC(C)=O)O[C@H]3OC(C)=O [Compound 8, corymbulosin X]
3. C=CC(=C)CC[C@]1(C)[C@H](C)[C@@H](OC(C)=O)[C@H](OC(C)=O)[C@@]23C(=C[C@H](OC(=O)CC(C)C)C[C@@H]12)[C@@H](OC(C)=O)O[C@H]3OC(C)=O [Compound 3, Grewiifopene C]

Solution:
[5.62, 5.74, 5.28]

// for each compound below, give its pIC50
1. C=CC(=C)CC[C@]1(C)[C@H](C)[C@@H](OC(C)=O)[C@H](OC)[C@@]23C(=C[C@H](OC(=O)CC(C)C)C[C@@H]12)[C@@H](OC(C)=O)O[C@H]3OC(C)=O [Compound 2, Grewiifopene B]
2. C=CC(=C)CC[C@]1(C)[C@H](C)C[C@H](OC)[C@@]23C(=C[C@H](OC(=O)CC(C)C)C[C@@H]12)[C@@H](OC)O[C@H]3OC(C)=O [Compound 10, kurzipene A]
3. C=CC(=C)CC[C@]1(C)[C@H](C)C[C@H](OC)[C@@]23C(=C[C@H](OC(=O)[C@@H](C)CC)C[C@@H]12)[C@@H](OC(C)=O)O[C@H]3OC(C)=O [Compound 5, corymbulosin N]
4. C=CC(=C)CC[C@]1(C)[C@H](C)C[C@H](OC)[C@@]23C(=C[C@H](OC(=O)[C@@H](C)CC)C[C@@H]12)[C@@H](OC)O[C@H]3OC(C)=O [Compound 11, balanspene F]
5. C=CC(C)=CCC1(C)C(C)C(OC(C)=O)C(OC(C)=O)C23C(=CC(OC(=O)CC(C)C)CC12)C(OC(C)=O)OC3OC(C)=O (centres unmarked) [Compound 15, Grewiifopene H]
6. C=CC(=C)CC[C@]1(C)[C@H](C)C[C@H](O)[C@@]23C(=C[C@H](OC(=O)[C@@H](C)CC)C[C@@H]12)[C@@H](OC(C)=O)O[C@H]3OC(C)=O [Compound 7, isocaseamembrin E]
7. C=CC(=C)CC[C@]1(C)[C@H](C)C[C@H](OC)[C@@]23C(=C[C@H](OC(=O)C(C)C)C[C@@H]12)[C@@H](OC(C)=O)O[C@H]3OC(C)=O [Compound 6, corymbulosin K]
8. COC1=CC(=O)C=C(OC)C1(O)CC(C)=O [Compound 20, 4-acetonyl-3,5-dimethoxy-p-quinol]

Solution:
1: 5.06; 2: 4.97; 3: 5.25; 4: 4.99; 5: 5.06; 6: 6.05; 7: 5.14; 8: 3.88

Parameters: items (list). Returns: pIC50 for each item.
1. C=CC(=C)CC[C@]1(C)[C@H](C)[C@@H](OC(=O)CC(C)C)[C@H](O)[C@@]23C(=C[C@H](OC(=O)CC(C)C)C[C@@H]12)[C@@H](OC(C)=O)O[C@H]3OC(C)=O [Compound 12, Grewiifopene E]
2. COc1cccc2c1C(=O)c1c(O)c3c(c(O)c1C2=O)C[C@@](O)(C(=O)CO)C[C@@H]3O[C@H]1C[C@H](N)[C@H](O)[C@H](C)O1 [Doxorubicin, reference compound]

Solution:
1: 5.42; 2: 6.49
